# solubility values compiled below
- Assay info: Solubility (at pH 4)
- Type: physicochemical
- Measurement conditions: buffer, read-out: S
Quick reminder: number only, in mg/mL, skip the unit.

Q: Please report solubility for the following compound: Cl.Nc1c(F)c(N2CC[C@H](N)C2)c(F)c2c1c(=O)c(C(=O)O)cn2C1CC1.O
Ans: 2.3

Q: Tell me its solubility given NC(=O)CC[C@H](N)C(=O)NC1CCN(c2nc3c(cc2F)c(=O)c(C(=O)O)cn3C2CC2)C1 (stereo partly drawn) as the entry.
Ans: 3.1

----------
- Test system: Enterococcus faecalis
- Assay info: In vitro antibacterial activity against gram positive Enterococcus faecalis MGH-2.
- Format: functional
I'd appreciate it if you marked entries T when MIC is lower than 0.4 µg/mL and F when it is not.

Worked set:
Q: Could you please tell me whether MIC recorded for C[C@H](N)C(=O)N[C@H]1CCN(c2nc3c(cc2F)c(=O)c(C(=O)O)cn3C2CC2)C1.Cl.O is less than 0.4 µg/mL?
Ans: F

Q: Is 0.4 µg/mL strictly greater than the compound's reported MIC? compound: Cl.N[C@@H]1CCN(c2c(F)cc3c(=O)c(C(=O)O)cn(C4CC4)c3c2F)C1.O
Ans: T

Others:
Q: Determine whether this compound shows MIC lower than 0.4 µg/mL (ties excluded): Cl.Nc1c(F)c(N2CC[C@H](N)C2)c(F)c2c1c(=O)c(C(=O)O)cn2C1CC1.O
Ans: T

Q: Take the compound Cl.NCC(=O)NC1CCN(c2nc3c(cc2F)c(=O)c(C(=O)O)cn3C2CC2)C1.O (stereo not drawn) and say whether its MIC is less than 0.4 µg/mL.
Ans: F

Q: Could you please tell me whether MIC recorded for C[C@H](N)C(=O)N[C@@H]1CCN(c2c(F)cc3c(=O)c(C(=O)O)cn(C4CC4)c3c2F)C1.Cl.O is less than 0.4 µg/mL?
Ans: F

Q: Answer whether the compound C[C@H](N)C(=O)N[C@H]1CCN(c2c(F)cc3c(=O)c(C(=O)O)cn(C4CC4)c3c2F)C1.Cl.O has MIC strictly less than 0.4 µg/mL
Ans: T

Q: Identify whether the compound Cl.Nc1c(F)c(N2CC[C@@H](N)C2)c(F)c2c1c(=O)c(C(=O)O)cn2C1CC1.O records MIC below 0.4 µg/mL.
Ans: T

Q: Given NC(=O)CC[C@H](N)C(=O)NC1CCN(c2nc3c(cc2F)c(=O)c(C(=O)O)cn3C2CC2)C1 (stereo partly drawn) , is recorded MIC strictly lower than 0.4 µg/mL?
Ans: F

----------
- Assay info: Aqueous solubility
- Format: physicochemical
- Measurement conditions: water (aqueous); read-out: S
Assign T to entries whose solubility meets or exceeds 40 mg/mL; assign F to the rest.

Illustrative cases are given below, each with its answer.
Q: Identify whether the reported solubility of the following compound is 40 mg/mL or greater: Cl.NCC(=O)NC1CCN(c2c(F)cc3c(=O)c(C(=O)O)cn(C4CC4)c3c2F)C1.O (stereo not drawn)
Ans: F

Q: Check if solubility >= 40 mg/mL (inclusive). Item: Cl.N[C@@H](Cc1ccccc1)C(=O)NC1CCN(c2cc3c(cc2F)c(=O)c(C(=O)O)cn3C2CC2)C1.O (stereo partly drawn)
Ans: T

Q: Could you please find out whether C[C@@H](N)C(=O)NC1CCN(c2nc3c(cc2F)c(=O)c(C(=O)O)cn3C2CC2)C1.Cl.O (stereo partly drawn) has solubility that meets 40 mg/mL or exceeds it?
Ans: T

Q: Tell me whether solubility is at least 40 mg/mL here: Cl.N[C@@H](Cc1ccccc1)C(=O)NC1CCN(c2nc3c(cc2F)c(=O)c(C(=O)O)cn3C2CC2)C1.O (stereo partly drawn)
Ans: T

Q: Kindly determine if solubility recorded for Nc1c(F)c(N2CCC(N)C2)c(F)c2c1c(=O)c(C(=O)O)cn2C1CC1 (stereo not drawn) is above or exactly 40 mg/mL.
Ans: F

Q: Reported solubility at or above 40 mg/mL? CC(C)[C@H](N)C(=O)NC1CCN(c2nc3c(cc2F)c(=O)c(C(=O)O)cn3C2CC2)C1.Cl.O (stereo partly drawn)
Ans: T

Q: Hi, just wondering whether Cl.NC1CCN(c2c(F)cc3c(=O)c(C(=O)O)cn(C4CC4)c3c2F)C1 (stereo not drawn) shows solubility of 40 mg/mL or higher.
Ans: F

# ---- query compound ----
Q: Has C[C@@H](N)C(=O)NC1CCN(c2c(F)cc3c(=O)c(C(=O)O)cn(C4CC4)c3c2F)C1.Cl.O (stereo partly drawn) a recorded solubility greater than or equal to 40 mg/mL?
Ans: T
